Data provenance is ChEMBL document CHEMBL1129563.

Examples of molecules with documented IC50 ratio follow.
ASSAY_DETAILS: Kappa opioid activity was evaluated on electrically stimulated guinea pig ileum by using ethylketazocine (EK) as standard.
Format: tissue-based
Respond numerically, and do not add a unit to the figure.

The cases that follow already have their IC50 ratio on record.
CC(=O)NC1=NC([C@]2(NC(C)=O)CC[C@@]3(O)[C@H]4Cc5ccc(O)c6c5C3(CCN4CC3CC3)[C@H]2O6)=N[C@]12CC[C@@]1(O)[C@H]3Cc4ccc(O)c5c4C1(CCN3CC1CC1)[C@H]2O5: 3.3
N[C@]1(C(=O)O)CC[C@@]2(O)[C@H]3Cc4ccc(O)c5c4C2(CCN3CC2CC2)[C@H]1O5: 6.2
N[C@@]1(C(=O)O)CC[C@@]2(O)[C@H]3Cc4ccc(O)c5c4C2(CCN3CC2CC2)[C@H]1O5: 1.9

Read the next record carefully.
-- ask What value of IC50 ratio has been reported for the following molecule? "N[C@@]1(C2=NC(=O)[C@@]3(CC[C@@]4(O)[C@H]5Cc6ccc(O)c7c6C4(CCN5CC4CC4)[C@H]3O7)N2)CC[C@@]2(O)[C@H]3Cc4ccc(O)c5c4C2(CCN3CC2CC2)[C@H]1O5"
-- reply 1.1

---

TARGET_SYSTEM: Kappa-type opioid receptor (Cavia porcellus) (UniProt P41144)
ASSAY_DETAILS: Ke value was obtained from IC50 ratio values when compared with Opioid receptor kappa 1 agonist in Guinea pig Ileum using EK as radioligand
Format: functional, tissue-based
PROPERTY_LABEL: Ke (nM)
Answer with a number only, understood to be in nM.

-- ask GET /values?readout=Ke&system=Kappa-type opioid receptor (Cavia porcellus) (UniProt P41144)&item= "N#C[C@@]1(N)CC[C@@]2(O)[C@H]3Cc4ccc(O)c5c4C2(CCN3CC2CC2)[C@H]1O5"
-- reply 6

---

TARGET_SYSTEM: Mu-type opioid receptor (Cavia porcellus) (UniProt P97266)
Sequence (P97266 whole entry): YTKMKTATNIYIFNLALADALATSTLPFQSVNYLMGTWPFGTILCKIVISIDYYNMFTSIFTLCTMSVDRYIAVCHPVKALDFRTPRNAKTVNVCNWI
ASSAY_DETAILS: Ke value is obtained from IC50 ratio value when compared with Opioid receptor mu 1 agonist in Guinea pig Ileum using DAMGO as radioligand
Format: functional, tissue-based
# key: entry, value: Ke
Could you give me the number in nM? Just the number is fine.

N#C[C@@]1(N)CC[C@@]2(O)[C@H]3Cc4ccc(O)c5c4C2(CCN3CC2CC2)[C@H]1O5: 1.3
CC(=O)NC1=NC([C@]2(NC(C)=O)CC[C@@]3(O)[C@H]4Cc5ccc(O)c6c5C3(CCN4CC3CC3)[C@H]2O6)=N[C@]12CC[C@@]1(O)[C@H]3Cc4ccc(O)c5c4C1(CCN3CC1CC1)[C@H]2O5: 1.9
NC(=O)[C@]1(N)CC[C@@]2(O)[C@H]3Cc4ccc(O)c5c4C2(CCN3CC2CC2)[C@H]1O5: 9.8
N[C@@]1(C(=O)O)CC[C@@]2(O)[C@H]3Cc4ccc(O)c5c4C2(CCN3CC2CC2)[C@H]1O5: 27
N[C@]1(C(=O)O)CC[C@@]2(O)[C@H]3Cc4ccc(O)c5c4C2(CCN3CC2CC2)[C@H]1O5: 0.65

Alright, here's another compound for you.
-- ask What reported Ke corresponds to "N[C@@]1(C2=NC(=O)[C@@]3(CC[C@@]4(O)[C@H]5Cc6ccc(O)c7c6C4(CCN5CC4CC4)[C@H]3O7)N2)CC[C@@]2(O)[C@H]3Cc4ccc(O)c5c4C2(CCN3CC2CC2)[C@H]1O5" on Mu-type opioid receptor (Cavia porcellus) (UniProt P97266)?
-- reply 0.46

---

TARGET_SYSTEM: Kappa-type opioid receptor (Cavia porcellus)
ASSAY_DETAILS: Binding affinity against Kappa Opioid receptor in Guinea pig brain membranes
Assay type: cell membranes, Membrane
PROPERTY_LABEL: Ki (nM)
Dear colleague, please return just the value in nM, with no unit written.

-- ask Could you tell me which Ki is on file for "NC1=NC([C@]2(N)CC[C@@]3(O)[C@H]4Cc5ccc(O)c6c5C3(CCN4CC3CC3)[C@H]2O6)=N[C@]12CC[C@@]1(O)[C@H]3Cc4ccc(O)c5c4C1(CCN3CC1CC1)[C@H]2O5" ?
-- reply 88

---

TARGET_SYSTEM: Kappa-type opioid receptor (Cavia porcellus, UniProt P41144)
Sequence (P41144 whole entry): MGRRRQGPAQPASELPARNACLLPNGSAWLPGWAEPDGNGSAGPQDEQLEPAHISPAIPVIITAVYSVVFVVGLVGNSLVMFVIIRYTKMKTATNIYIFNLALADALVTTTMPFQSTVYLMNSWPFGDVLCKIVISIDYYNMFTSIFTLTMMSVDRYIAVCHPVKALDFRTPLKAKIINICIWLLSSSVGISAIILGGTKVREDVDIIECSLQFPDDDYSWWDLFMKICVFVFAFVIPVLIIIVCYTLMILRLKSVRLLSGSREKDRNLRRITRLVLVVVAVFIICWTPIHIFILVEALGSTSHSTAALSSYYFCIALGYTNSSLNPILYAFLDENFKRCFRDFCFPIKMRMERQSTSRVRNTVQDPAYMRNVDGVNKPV
ASSAY_DETAILS: Binding affinity against Opioid receptor kappa 1 in Guinea pig brain membranes
Assay type: cell membranes, Membrane
PROPERTY_LABEL: Ki (nM)
// note: answer is a bare numeric in nM

-- ask # get_value(readout='Ki', item= "N[C@@]1(C2=NC(=O)[C@@]3(CC[C@@]4(O)[C@H]5Cc6ccc(O)c7c6C4(CCN5CC4CC4)[C@H]3O7)N2)CC[C@@]2(O)[C@H]3Cc4ccc(O)c5c4C2(CCN3CC2CC2)[C@H]1O5" )
-- reply 5.8

---

Tested on: Delta-type opioid receptor
ASSAY_DETAILS: Delta opioid activity on Mouse vas deference using DADLE as standard
Form field: IC50 ratio (one value per entry).
Keep it simple and answer with nothing but the number.

Solved cases below.
NC(=O)[C@]1(N)CC[C@@]2(O)[C@H]3Cc4ccc(O)c5c4C2(CCN3CC2CC2)[C@H]1O5: 0.89
NC1=NC([C@]2(N)CC[C@@]3(O)[C@H]4Cc5ccc(O)c6c5C3(CCN4CC3CC3)[C@H]2O6)=N[C@]12CC[C@@]1(O)[C@H]3Cc4ccc(O)c5c4C1(CCN3CC1CC1)[C@H]2O5: 2.8
N[C@]1(C(=O)O)CC[C@@]2(O)[C@H]3Cc4ccc(O)c5c4C2(CCN3CC2CC2)[C@H]1O5: 1.7
N#C[C@@]1(N)CC[C@@]2(O)[C@H]3Cc4ccc(O)c5c4C2(CCN3CC2CC2)[C@H]1O5: 2.5
N[C@@]1(C(=O)O)CC[C@@]2(O)[C@H]3Cc4ccc(O)c5c4C2(CCN3CC2CC2)[C@H]1O5: 1.1

-- ask Entry under review: "N[C@@]1(C2=NC(=O)[C@@]3(CC[C@@]4(O)[C@H]5Cc6ccc(O)c7c6C4(CCN5CC4CC4)[C@H]3O7)N2)CC[C@@]2(O)[C@H]3Cc4ccc(O)c5c4C2(CCN3CC2CC2)[C@H]1O5" . Reported IC50 ratio?
-- reply 0.87

-- ask Now consider "CC(=O)NC1=NC([C@]2(NC(C)=O)CC[C@@]3(O)[C@H]4Cc5ccc(O)c6c5C3(CCN4CC3CC3)[C@H]2O6)=N[C@]12CC[C@@]1(O)[C@H]3Cc4ccc(O)c5c4C1(CCN3CC1CC1)[C@H]2O5" .
-- reply 1.4

---

ASSAY_DETAILS: Kappa opioid activity was evaluated on electrically stimulated guinea pig ileum by using ethylketazocine (EK) as standard.
Assay type: tissue-based
PROPERTY_LABEL: IC50 ratio
Enter the number alone.

Solved cases below.
N#C[C@@]1(N)CC[C@@]2(O)[C@H]3Cc4ccc(O)c5c4C2(CCN3CC2CC2)[C@H]1O5: 17.5
NC(=O)[C@]1(N)CC[C@@]2(O)[C@H]3Cc4ccc(O)c5c4C2(CCN3CC2CC2)[C@H]1O5: 3.3

Continue with the next molecule.
-- ask // IC50 ratio lookup, key: "NC1=NC([C@]2(N)CC[C@@]3(O)[C@H]4Cc5ccc(O)c6c5C3(CCN4CC3CC3)[C@H]2O6)=N[C@]12CC[C@@]1(O)[C@H]3Cc4ccc(O)c5c4C1(CCN3CC1CC1)[C@H]2O5"
-- reply 9.1

---

TARGET_SYSTEM: Mu-type opioid receptor (Cavia porcellus, UniProt P97266)
Sequence (P97266 whole entry): as the sequence (P97266 whole entry) above
PROPERTY_LABEL: Ki (nM)
Response body: numeric value in nM, unit text excluded.

-- ask API: value(readout=Ki, system=Mu-type opioid receptor (Cavia porcellus, UniProt P97266)) for record "NC1=NC([C@]2(N)CC[C@@]3(O)[C@H]4Cc5ccc(O)c6c5C3(CCN4CC3CC3)[C@H]2O6)=N[C@]12CC[C@@]1(O)[C@H]3Cc4ccc(O)c5c4C1(CCN3CC1CC1)[C@H]2O5"
-- reply 0.98

---

TARGET_SYSTEM: Kappa-type opioid receptor (Cavia porcellus) (UniProt P41144)
ASSAY_DETAILS: Ke value was obtained from IC50 ratio values when compared with Opioid receptor kappa 1 agonist in Guinea pig Ileum using EK as radioligand
Assay type: functional, tissue-based
PROPERTY_LABEL: Ke (nM)
Respond with the bare value in nM.

N[C@@]1(C(=O)O)CC[C@@]2(O)[C@H]3Cc4ccc(O)c5c4C2(CCN3CC2CC2)[C@H]1O5: 10
NC(=O)[C@]1(N)CC[C@@]2(O)[C@H]3Cc4ccc(O)c5c4C2(CCN3CC2CC2)[C@H]1O5: 44
CC(=O)NC1=NC([C@]2(NC(C)=O)CC[C@@]3(O)[C@H]4Cc5ccc(O)c6c5C3(CCN4CC3CC3)[C@H]2O6)=N[C@]12CC[C@@]1(O)[C@H]3Cc4ccc(O)c5c4C1(CCN3CC1CC1)[C@H]2O5: 44

-- ask Look up Ke: "N[C@]1(C(=O)O)CC[C@@]2(O)[C@H]3Cc4ccc(O)c5c4C2(CCN3CC2CC2)[C@H]1O5"
-- reply 19
